System: PPARg:RXRa 270nM:90nM, anti-RXR (NR concentration 270 nM, RXRa partner concentration 90 nM)
Experiment: PBM binding z-score (relative to random genomic background probes); higher = stronger binding; sequences stand for … in GC…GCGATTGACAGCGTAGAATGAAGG
Class definitions on PBM binding z-score: low-valued = under 2, mid-valued = from 2 up to 4, high-valued = 4 and over

*Q* Input AGAATGAGGTTACGATCAGGGAAACAGAATACAT ; output its category
*A* mid-valued

*Q* Another: CCTTACGGGTCACTCCAGGGTATAGCATCGGAGT
*A* mid-valued

*Q* Another: CAAACTAGGTCAAGGTCGAAGTCGGTTTGTGCCA
*A* high-valued

*Q* Another: ATCGAAAGGTCGCGAGGTGAGTATACAGAAAGGC
*A* high-valued

*Q* Another: CGAACTAGGTCAGGGACAGTGAATCTCCGCACGC
*A* high-valued

*Q* Another: CCTAGTTGGTCGGGAGGTCACACACCGGATATGA
*A* mid-valued

*Q* Another: CGTCCAAGTTCAAGGTCAGTGAAAGAGACTCGAA
*A* mid-valued

*Q* Another: CCTTACGGGTCACTGACAGGTTATAGCCTTTGGA
*A* high-valued

*Q* Another: ACTAGCATGCCAAGTTTGGGTCACTCAAACAAAG
*A* low-valued

*Q* Another: CCTGCTAGGTCTTGGTCAGCTAATCTACAGTATG
*A* low-valued

*Q* Another: CGTCCAAGGTGAGCAGGTCAGTGAAAGCGACGTG
*A* low-valued

*Q* Another: TAGCCTAGGTCATTGGGCCACTATAGTACGCATC
*A* high-valued

*Q* Another: TCTCCGAGGACACGAAGGTCAGAGCTTTCCAGAG
*A* low-valued

*Q* Another: CCAGACAGGTGAGAAGGTAGCTCAGCCTCGATTA
*A* low-valued

*Q* Another: ATCTCTAGGTAACAAGTCCAGTGAAAGAGAGGAC
*A* low-valued

*Q* Another: CCTACTAGGCCACGAAAGGTCATTGATTCAGTGA
*A* high-valued

*Q* Another: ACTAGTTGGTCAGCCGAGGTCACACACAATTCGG
*A* mid-valued

*Q* Another: TCTATTAGTTGGTTAGGGCAACCGAAACAGCGGA
*A* low-valued

* * *

Provide the recorded PBM binding z-score for the entries that follow.
Test system: VDR:RXRa (NR concentration 270 nM, RXRa partner concentration 90 nM)
Assay: PBM binding z-score (relative to random genomic background probes); higher = stronger binding; sequences stand for … in GC…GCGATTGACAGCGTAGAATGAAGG

*Q* Value lookup for PBM binding z-score; key = CAAACTAGGTCAGCGGAAGGTCAAAGTCCGCATG
*A* 5.07

*Q* Another: CGAACTAGGTCATTGACACGACAGTGAATAGTAA
*A* 2.01

*Q* Another: AGTCAAAGTTCATCTAGGGAACGTAAGATATGCT
*A* 4.73

*Q* Another: TCTTGTAGATTAAGCAGGTTAAGAAAGCCTGAGT
*A* 0.313

*Q* Another: ACTATTAGTCGAGACGAGGGCAACCGATAGGTTG
*A* 0.293

*Q* Another: CCTTACGGGTCACAAGGTTATAGCACGACGAGCG
*A* 4.37

*Q* Another: ACTCGGAGCACAAAGGTCAGAGCTACGCCAGTGA
*A* 3.58

*Q* Another: TCATATAGGTAAAAGGTGACAGTCGGTGTGGTAA
*A* 1.35

*Q* Another: CGTCCAAGGGCAAAGGTCAGTGAAGAGATGACGG
*A* 3.89

*Q* Another: CCTAGTTGGTCAAAGTCACACACGCTATAGGTAC
*A* 0.996

*Q* Another: GCGTACGGGTCAAAGGTTATAGCATGAATAGAAT
*A* 5.59

*Q* Another: ATATGTAGATTAAGGGTCATTCAGGTTGGTTCGC
*A* 5.22

*Q* Another: CCTGCTAGGTCATGGTGAGCTAATCTACAGTATG
*A* 1.37

*Q* Another: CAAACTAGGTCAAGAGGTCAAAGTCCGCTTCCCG
*A* 6.26

*Q* Another: TCTATAAGTTGAAGGGCAACCGACGAGTCCGTTT
*A* 1.07

*Q* Another: ATATGTAGGTAATCGGGTCATTCAGTTTGCGCAT
*A* 4.7

*Q* Another: CCTTGTTGGTCAGGAGGTCACACACCGGATATGA
*A* 3.79

*Q* Another: GCTTGTAGATCAAGGTTAAGAGAGACTAAGCTAA
*A* -0.00778

*Q* Another: CGTCCAAGGTCAAGGTAAGTGAAAGAGACTCGAA
*A* 3.76

*Q* Another: GGAACGAGGGCAAGTTGATAGTAGAGTTTGATGG
*A* 1.34

*Q* Another: GCTTACGGGTCATAGGTTATAGCATGAATAGAAT
*A* 3.91

*Q* Another: GCATACAGGTGAAACGCAGGTAACTCAGGGTGGC
*A* -0.304

*Q* Another: GCGACTGGGGCATCAGCACGTTACCATAACTTAA
*A* -0.365
